Provide the recorded Percent Effect for the entries that follow.
Test system: Wolbachia pipientis
Assay: Anti-Wolbachia Cell-Based Screen
Format: functional
Parameters: scale not given: in the data most compounds retested in dose-response had high values
Conditions: 5 µM
In all, about 48,000 compounds went through this assay and about 13,000 (27%) showed an effect of 50% or more. This is one part of the list.
One number for each entry, in %.

Below: 5 compounds and their reported Percent Effect.
Sure, the documented Percent Effect for O=C(NC1CCc2c(ccc(=O)n2CC2CC2)C1)c1cscn1 (centres undefined) is -44.11

// CN1[C@H](Cn2cncn2)C[C@@H]2CN(C3CCOCC3)CC[C@@H]21.O=C(O)C(F)(F)F.O=C(O)C(F)(F)F : Percent Effect value = 8.742

Sure, the documented Percent Effect for Cc1nn(C(C)C)c(C)c1NC(=O)c1ccc(F)cc1 is -6.824

Percent Effect in this record for O=C(CCN1CCCCO1)NCCSc1cnn[nH]1 : -10.06

The compound listed as CS(=O)(=O)Cc1ccc(Cl)cc1NCc1cccc(F)c1F shows Percent Effect equal to -9.935

Batch lookup, Percent Effect per entry.
1. COCc1c(Br)cccc1NC(=O)CC(F)(F)F
2. CC(=O)N1CC[C@H]2[C@H](C[C@@H](Cn3cncn3)N2c2nccs2)C1.O=C(O)C(F)(F)F
3. CC(C)N1[C@H](Cn2cccn2)C[C@@H]2CN(C3CCOCC3)CC[C@@H]21.O=C(O)C(F)(F)F.O=C(O)C(F)(F)F.O=C(O)C(F)(F)F
4. O=C(c1cncc(N2CCC3(CCNCC3)CC2)n1)N1CCCC1

Resp:
1. -8.675
2. 4.075
3. 7.148
4. 1.429

* * *

Tested on: Wolbachia pipientis
Test: Anti-Wolbachia Cell-Based Screen
Type: functional
Design: scale not given: in the data most compounds retested in dose-response had high values
Details: 5 µM
Among all 48,000 compounds or so, about 13,000 (27%) showed an effect of 50% or more. This is one part of the list.
Measure: Percent Effect (%)
Give bare numbers, in %.

Examples from the recorded data:
Please fill in: Percent Effect reported for CC(C)(C)c1cn2c(n1)C(CNCc1cnn3ccccc13)CCC2 (stereo unspecified) = 3.116

Sample CS(=O)(=O)c1snnc1C1CCN(Cc2cccnc2)CC1 ; Percent Effect observed: 133.5

Entry Cc1nccc(CN2CCC(c3nnsc3S(C)(=O)=O)CC2)n1 ; Percent Effect = 2.937

Value of Percent Effect reported for the molecule Cc1cccc(CN2CCC(c3nnsc3S(C)(=O)=O)CC2)n1 is 122.9

Each molecule below has a recorded value; state its Percent Effect.
1. Cc1ccc(OC2(C(=O)N(C)Cc3ccoc3)CCNCC2)cc1
2. CNc1ncc(CN2CCC(c3nnsc3S(C)(=O)=O)CC2)cn1
3. COCCCN1CC2(CCCN(CCn3cc(Cl)cn3)C2)CCC1=O (stereo unspecified)

Resp:
1: -12.66; 2: 122; 3: 116.7

* * *

Test system: Wolbachia pipientis
Assay: Anti-Wolbachia Cell-Based Screen
Type: functional
Set-up: scale not given: in the data most compounds retested in dose-response had high values
Settings: 5 µM
Screen size: about 48,000 compounds; about 13,000 (27%) showed an effect of 50% or more. This is one part of the list.
Please respond with reported Percent Effect for every item in the list.
Answers are plain numbers, in %.

# count of solved cases: 2
Recorded Percent Effect for CCN(C(C)=O)c1nc(CN2CCCCC2Cn2cncn2)cs1 (configuration not stated) on Wolbachia pipientis was 113.4

Form field, Percent Effect with Wolbachia pipientis, item Cc1ncsc1-c1nnc(C2CCN(Cc3ccccc3)CC2)o1 : 104.4

Please state Percent Effect for every compound in the list that follows.
1. COc1ccc(CN2CCC(c3nnc(-c4scnc4C)o3)CC2)cc1
2. Cc1ccc(CN2CC[C@H](c3nnc(-c4ccco4)o3)C2)cc1
3. CC(=O)N(C)c1nc(CN2CCCC2Cn2nc(C)cc2C)cs1 (configuration not stated)
4. CC(=O)Nc1nc(CN2CCCC2Cn2cncn2)cs1 (configuration not stated)
5. COc1ccc(-c2nnc([C@H]3CCN(CC(C)(C)C)C3)o2)cc1

Resp:
115.7
-0.8562
89.05
-0.3919
4.195

Field: Percent Effect. Fill in for each record below.
1. Cc1ncsc1-c1nnc(C2CCN(Cc3ccc(F)cc3)CC2)o1
2. C=C(C)COc1cccc(CNC(CC)c2ccnn2C)c1 (configuration not stated)
3. Cn1c(C(=O)N2CCC(C3OCCO3)CC2)c(Cl)c2ccccc21
4. CCN(C(C)=O)c1nc(CN2CCCC2Cn2cncn2)cs1 (configuration not stated)
5. CN(C)C(=O)Cc1nc(CN2CCCC2Cn2cccn2)cs1 (configuration not stated)

Resp:
1. -4.23
2. -16.98
3. 4.597
4. 93.1
5. -60.87
